From: a melting point compilation (Tetko et al.; mined from patent text by program, amines drawn as free bases though some values may be those of a salt)

MEASUREMENT NAME: melting point

Recorded results for 3 molecules are shown here.
{"MOLECULE": "O=C1CCC(c2ccc3c(c2)NC(=O)CO3)=NN1", "melting point": "274 to 275 °C"}
{"MOLECULE": "COCCNC(=O)c1ccc(C(=O)NS(=O)(=O)c2ccc(CCNC(=O)CCC(C)C)cc2)cn1", "melting point": "154 to 157 °C"}
{"MOLECULE": "O=C(Cc1c(-c2ccccc2)c2cc(CN3CCN(c4ccccc4)CC3)c(Cl)cc2oc1=O)Nc1ccc(Cl)cc1C(F)(F)F", "melting point": "201 to 203 °C"}

**Query** Entry under review: CCCC1(CCC)c2cc(-c3ccc(Br)s3)ccc2-c2ccc(-c3ccc(Br)s3)cc21 . Reported melting point?
**Result** 160 to 165 °C

**Query** Which measured melting point value corresponds to COc1ccc(-n2c(-c3cccnc3)nc(SC)c(C#N)c2=O)cc1 ?
**Result** 230 to 233 °C

**Query** Item CON1CCn2c(OC(=O)C(C)(C)C)c(-c3c(C)cc(C)cc3C)c(=O)n2CC1 has what recorded melting point?
**Result** 147 to 148 °C

**Query** Would you mind telling me what melting point value was observed for CCCCCC(=O)c1c[nH]c2ccccc12 ?
**Result** 153 to 154 °C

**Query** Consider the molecule COC(=O)CCc1ccc(-n2c(C)cn(-c3ccc(C(=N)NC(=O)OC)cc3)c2=O)cc1 and give its measured melting point.
**Result** 212 to 213 °C

**Query** Which melting point value is on record for COc1cc(C(=O)O)ccc1Cn1cc(CCC(=O)N(C)C)c2ccc(CCC(=O)N(C)C)cc21 ?
**Result** 216 to 218 °C

**Query** # lookup: melting point of Cn1ccc(S(=O)(=O)NC(C)(C)C)c1
**Result** 134 to 135 °C

**Query** Query: melting point; subject: N#Cc1nc(Cl)c(Oc2ccccc2)nc1C#N
**Result** 115 to 118 °C

**Query** Give the measured melting point of COC(=O)CCc1ccc(C(=O)Cc2ccccc2)cc1 .
**Result** 77 to 78 °C

**Query** Returns the measured melting point for the input molecule. Input: Nc1nc2ccc(C(O)C(CNC(=O)c3ccccc3)N3CCC(Cc4ccccc4)CC3)cc2s1 (configuration not stated)
**Result** 160 to 162 °C

**Query** Which melting point value is on record for CCCCOCCOc1ccc(-c2ccc3c(c2)C=C(C(=O)OC)CCN3C(=O)CNC(C)=O)cc1 ?
**Result** 130 to 134 °C

---

The reader will find reported melting point values listed item by item below.

{"COMPOUND": "CCCCC(Oc1c(Br)cc(-c2c3ccccc3c(Br)c3sc4ccccc4c23)cc1Br)C(=O)O (centres undefined)", "melting point": "212 to 213 °C"}
{"COMPOUND": "CN(C)S(=O)(=O)c1ccc2c(c1)C=C(C(=O)O)C(C(F)(F)F)O2 (centres undefined)", "melting point": "201 to 202 °C"}
{"COMPOUND": "CC1=C(C)CC(C(=O)Nc2ccccc2)C(C(=O)O)C1 (centres undefined)", "melting point": "155 to 156 °C"}
{"COMPOUND": "O=C(CCCCl)Nc1cccc(Cc2n[nH]c(=O)c3ccccc23)c1", "melting point": "180 to 184 °C"}

**Query** What melting point value was documented for this compound, O=[N+]([O-])C=Cc1ccc(OCc2ccccc2)c(OCc2ccccc2)c1 ?
**Result** 118 to 119 °C

**Query** State the recorded melting point for this entry: CC(Br)c1ccc2c(=O)c3ccccc3ccc2c1 (centres undefined)
**Result** 93 to 95 °C

**Query** # input compound: CCOC(=O)C1(NC(C)=O)CC(C)(C)NC(C)(C)C1 ; wanted: its melting point
**Result** 108 to 109 °C

**Query** // melting point lookup, key: O=C(c1ccccc1)C1CCCc2cccnc21 (centres undefined)
**Result** 205 to 207 °C

**Query** Need melting point of CC(=O)c1cccc(Oc2cccc(-c3cccc(C(=O)NCCC#N)c3)n2)c1 , thanks.
**Result** 140 to 141 °C

**Query** Suppose we examine the compound CC1(C(=O)Nc2ccc(OCC3CC3)c(Cl)c2)CC1 ; what melting point value has been reported?
**Result** 111 to 113 °C

**Query** Would you kindly share the measured melting point for CCCNCCc1ccc(NS(=O)(=O)c2ccc(Cl)cc2Cl)cc1 ?
**Result** 165 to 168 °C

**Query** Could you tell me which melting point is on file for CC(C)n1nc(Br)nc1O ?
**Result** 155 to 157 °C

**Query** Param item = C[C@]1(COc2ccc(N3CCC(COCc4ccc(C(F)(F)F)cc4)CC3)cc2)Cn2cc([N+](=O)[O-])nc2O1 ; retrieve measured melting point.
**Result** 172 to 173 °C

**Query** GET /values?readout=melting point&item= CNS(=O)(=O)c1cc(OC)c(OC)c(C(=O)NCC2CCCN2C)c1 (centres undefined)
**Result** 111 to 112 °C

**Query** Query: melting point; subject: Oc1ccc(C(F)(F)F)cc1C=S
**Result** 50 to 52 °C

**Query** Look up melting point for this compound: COCCCCc1cccc(C2(c3ccc(OC(F)F)cc3)N=C(N)N(C)C2=O)c1 (centres undefined)
**Result** 36 to 39 °C

**Query** Reported melting point for COc1ccc(CCNCC(O)c2ccc(C)s2)cc1OC (centres undefined) : what is it?
**Result** 108 to 110 °C

**Query** # query: melting point of entry O=C(NCC12CC3CC(CC(C3)C1)C2)c1cc(-c2c(F)cccc2C(=O)O)ccc1Cl
**Result** 108 to 113 °C

**Query** Which melting point is reported for this compound? Nc1ncnc2c1c(-c1ccc(Oc3cccc(CN4CCOCC4)c3)cc1)cn2C1CCOC1 (centres undefined)
**Result** 83 to 85 °C

**Query** GET /values?readout=melting point&item= C[C@@H]1CCC[C@H](C)N1CCCNC(=O)CN1C(=O)CCC1(C)C
**Result** 86 to 87 °C

**Query** Need melting point of CN1C2=NCCN2C(=O)c2cccnc21 , thanks.
**Result** 168 to 171 °C

**Query** Recorded melting point of C#CCOc1c(Cl)cc(Cl)cc1C(=O)NCC1CCCN1C1CCCCC1 (centres undefined) , please.
**Result** 84 to 85 °C

**Query** Fill blank: measured melting point of the compound COc1cc(-c2nc(-n3ccnc3)c3c(C)c(C#N)sc3n2)cc(OC)c1OC is ____.
**Result** 238 to 240 °C

**Query** Please give the measured melting point for this compound: Cc1cccc([C@H]2[C@H](C(=O)Nc3ccc(F)c(F)c3)C2(C)C)c1 (relative stereo)
**Result** 110 to 113 °C
